- Measurement Notes: Solubility check in organic oil solutions (78% oil, 20% benzyl benzoate, 2% benzyl alcohol)
- Type: physicochemical
- Conditions Used: castor oil / benzyl benzoate / benzyl alcohol solution, oil or lipid, thermodynamic from solid; castor oil 78% / benzyl benzoate 20% / benzyl alcohol 2%, 25 °C, average of three; read-out: Solubility CASTOR
Measured solubility of individual entries

Molecule: CC(=O)OC1CCC2C3CCC4=CC(=O)CCC4(C)C3CCC12C (stereo not drawn) [TAce, Androst-4-en-17β-ol-3-one 17β-acetate]
solubility: 162 mg/mL

Molecule: CCC(=O)O[C@H]1CC[C@H]2[C@@H]3CCC4=CC(=O)CC[C@]4(C)[C@H]3CC[C@]12C [TPro, Androst-4-en-17β-ol-3-one 17β-propionate]
solubility: 194 mg/mL

* * *

- Measurement Notes: Solubility check in organic oil solutions (78% oil, 20% benzyl benzoate, 2% benzyl alcohol)
- Type: physicochemical
- Conditions Used: oil or lipid, thermodynamic from solid; medium-chain triglyceride 78% / benzyl benzoate 20% / benzyl alcohol 2%, 25 °C, average of three; read-out: Solubility MCT
Measured solubility of individual entries

Compound: CC(=O)OC1CCC2C3CCC4=CC(=O)CCC4(C)C3CCC12C (stereo not drawn) [TAce, Androst-4-en-17β-ol-3-one 17β-acetate]
solubility [mg/mL]: 120

Compound: CCC(=O)O[C@H]1CC[C@H]2[C@@H]3CCC4=CC(=O)CC[C@]4(C)[C@H]3CC[C@]12C [TPro, Androst-4-en-17β-ol-3-one 17β-propionate]
solubility [mg/mL]: 185

* * *

- Measurement Notes: Solubility check in organic oil solutions (78% oil, 20% benzyl benzoate, 2% benzyl alcohol)
- Type: physicochemical
- Conditions Used: cottonseed oil / benzyl benzoate / benzyl alcohol solution, oil or lipid, thermodynamic from solid; cottonseed oil 78% / benzyl benzoate 20% / benzyl alcohol 2%, 25 °C, average of three; read-out: Solubility COTTON
Value Kind: solubility (mg/mL)

Molecule: CCC(=O)O[C@H]1CC[C@H]2[C@@H]3CCC4=CC(=O)CC[C@]4(C)[C@H]3CC[C@]12C [TPro, Androst-4-en-17β-ol-3-one 17β-propionate]
Unit Of Measure: mg/mL
Experimental Result: 174

Molecule: CC(=O)OC1CCC2C3CCC4=CC(=O)CCC4(C)C3CCC12C (stereo not drawn) [TAce, Androst-4-en-17β-ol-3-one 17β-acetate]
Unit Of Measure: mg/mL
Experimental Result: 98.8

* * *

- Measurement Notes: Solubility check in organic oil solutions (78% oil, 20% benzyl benzoate, 2% benzyl alcohol)
- Type: physicochemical
- Conditions Used: grape seed oil / benzyl benzoate / benzyl alcohol solution, oil or lipid, thermodynamic from solid; grape seed oil 78% / benzyl benzoate 20% / benzyl alcohol 2%, 25 °C, average of three; read-out: Solubility GSO
Value Kind: solubility (mg/mL)

Compound: CC(=O)OC1CCC2C3CCC4=CC(=O)CCC4(C)C3CCC12C (stereo not drawn) [TAce, Androst-4-en-17β-ol-3-one 17β-acetate]
Value Kind: solubility
Experimental Result: 98.8
//
Compound: CCC(=O)O[C@H]1CC[C@H]2[C@@H]3CCC4=CC(=O)CC[C@]4(C)[C@H]3CC[C@]12C [TPro, Androst-4-en-17β-ol-3-one 17β-propionate]
Value Kind: solubility
Experimental Result: 152
